// reported pIC50 per item
- STUDY_SYSTEM: human TLR8 (Homo sapiens (Human), UniProt Q9NR97)
- Sequence (Q9NR97 27-1041): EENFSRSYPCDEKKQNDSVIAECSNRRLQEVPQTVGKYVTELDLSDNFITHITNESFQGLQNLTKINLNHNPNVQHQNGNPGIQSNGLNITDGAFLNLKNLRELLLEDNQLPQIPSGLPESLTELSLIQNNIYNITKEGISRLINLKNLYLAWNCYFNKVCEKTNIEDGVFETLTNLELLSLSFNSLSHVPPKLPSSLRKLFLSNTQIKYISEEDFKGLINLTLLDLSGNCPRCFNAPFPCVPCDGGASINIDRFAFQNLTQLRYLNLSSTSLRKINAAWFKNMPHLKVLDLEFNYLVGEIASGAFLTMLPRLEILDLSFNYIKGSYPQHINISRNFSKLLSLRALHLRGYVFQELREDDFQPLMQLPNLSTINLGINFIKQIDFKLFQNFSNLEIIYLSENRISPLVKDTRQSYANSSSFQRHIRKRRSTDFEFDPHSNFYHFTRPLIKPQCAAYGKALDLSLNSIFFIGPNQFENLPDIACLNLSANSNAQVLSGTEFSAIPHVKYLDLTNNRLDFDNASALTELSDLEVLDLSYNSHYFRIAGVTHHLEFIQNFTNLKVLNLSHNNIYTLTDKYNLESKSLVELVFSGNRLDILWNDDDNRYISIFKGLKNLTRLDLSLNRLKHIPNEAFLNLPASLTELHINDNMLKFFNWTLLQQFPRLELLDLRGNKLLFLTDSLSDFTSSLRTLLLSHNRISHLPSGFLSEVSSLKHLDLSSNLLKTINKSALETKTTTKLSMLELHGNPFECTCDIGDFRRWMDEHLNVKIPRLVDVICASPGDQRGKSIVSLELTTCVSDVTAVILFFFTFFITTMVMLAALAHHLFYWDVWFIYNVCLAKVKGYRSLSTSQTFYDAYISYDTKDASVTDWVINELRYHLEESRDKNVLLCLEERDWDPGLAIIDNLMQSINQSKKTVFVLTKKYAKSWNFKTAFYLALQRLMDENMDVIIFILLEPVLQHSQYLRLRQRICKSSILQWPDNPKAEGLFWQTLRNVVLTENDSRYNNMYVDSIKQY
- TEST: TLR8 inhibition reporter assay (HEK-Blue SEAP)
- RUN_PARAMETERS: read-out: TLR8 IC50; HEK-Blue cells overexpressing human TLR8, R848 15.9 μM stimulation, SEAP reporter
A value of pIC50 is the negative decimal logarithm of a concentration given in moles per litre.

Entry CNC1CCC(c2ccc3[nH]c(-c4cn(C)c5nccnc45)c(C(C)C)c3n2)CC1 (stereo not shown) [Example 297] : reported pIC50 = ?
7.82

Query (compound): Cc1c(-c2[nH]c3ccc(C4CCC(NC5COC5)CC4)nc3c2C(C)C)cn2cnnc2c1C (stereo not shown) [Example 234] ; field requested: pIC50
8.30

I am curious: what pIC50 value has been reported for COc1cc(-c2[nH]c3cc(F)c(C4CCC(NCC5(C)COC5)CC4)nc3c2C(C)C)cn2ncnc12 (stereo not shown) [Example 341] ?
9.49

***
Sample COc1cc(-c2[nH]c3ccc(N4CCN(CC(N)=O)CC4)nc3c2C(C)C)cn2ncnc12 [Example 130] — what was its pIC50?
8.33

----------
In this section, each of the molecules is paired with its reported IC50.
- STUDY_SYSTEM: human TLR8 (Homo sapiens (Human), UniProt Q9NR97)
- TEST: TLR8 inhibition reporter assay (HEK-Blue SEAP);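 note: SEAP driven by IFN-β minimal promoter carrying NF-κB and AP-1 sites, compounds dosed 0.05 nM to 50 µM for 22 h, inhibition scaled between agonist-plus-DMSO and reference-inhibitor wells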
- RUN_PARAMETERS: read-out: TLR8 IC50; HEK-Blue cells overexpressing human TLR8, SEAP reporter, R848 15.9 μM
Answer in µM, number only, no unit symbol.

Tell me the measured IC50 of CNC(=O)CN(C)C1CCC(c2ccc3[nH]c(-c4cn5ncnc5c(C)c4C)c(C(C)C)c3n2)CC1 (stereo not drawn) [Example 400] , please.
0.0029

What value of IC50 has been reported for the following molecule? Cc1c(-c2[nH]c3ccc(C4CC(N(C)C(=O)CN(C)C)C4)nc3c2C(C)C)cn2ncnc2c1C (stereo not drawn) [Example 615]
0.0079

Can you share its IC50? I mean this molecule: COc1cc(-c2[nH]c3ccc(C4CCC(N(CC(=O)N(C)C)CC(=O)N(C)C)C4)nc3c2C(C)C)cn2ncnc12 (stereo not drawn) [Example 722]
0.046

I have this molecule here, COc1cc(-c2[nH]c3ccc(C4CCC(N(CCS(C)(=O)=O)CCS(C)(=O)=O)C4)nc3c2C(C)C)cn2ncnc12 (stereo not drawn) [Example 717] , and I need its recorded IC50.
1.1

I'd like to know its IC50. The molecule in question is Cc1cc(-c2[nH]c3ccc(-c4cnn(CCN5CCOCC5)c4)nc3c2C(C)C)cn2ncnc12 [Example 736]
0.269

***
Which IC50 value is on record for Cc1c(-c2[nH]c3ccc(C4CCN(CC#N)CC4)nc3c2C(C)C)cn2ncnc2c1C [Example 557] ?
0.0012

I'd like to know its IC50. The molecule in question is Cc1cc(-c2[nH]c3ccc(OC4CCN(C)CC4)nc3c2C(C)C)cn2ncnc12 [Example 594]
0.016

Data request, read-out IC50, for Cc1ncc(CN(C)C2CCC(c3ccc4[nH]c(-c5cn6ncnc6c(C)c5C)c(C(C)C)c4n3)CC2)cn1 (stereo not drawn) [Example 402]
0.043

Field request: IC50 | item: Cc1cc(-c2[nH]c3ccc(C4CN(C(=O)CN(C)C)CCO4)nc3c2C(C)C)cn(C)c1=O (stereo not drawn) [Example 677]
0.053

What does the record list as IC50 for Cc1cc(-c2[nH]c3ccc(-c4cnn(C5CCNCC5)c4)nc3c2C(C)C)cn2ncnc12 [Example 735] ?
0.061

# input molecule: COc1ccc(-c2[nH]c3ccc(C4CCNCC4)nc3c2C(C)C)cc1OC [Example 526] ; wanted: its IC50
0.014

Data request, read-out IC50, for Cc1c(-c2[nH]c3ccc(C4CCC(NCCO)CC4)nc3c2C(C)C)cn2ncnc2c1C (stereo not drawn) [Example 409]
0.0016

Which value of IC50 has been reported for Cc1c(-c2[nH]c3ccc(C4CCC(N(CC#N)CC(=O)N(C)C)CC4)nc3c2C(C)C)cn2ncnc2c1C (stereo not drawn) [Example 459] in the records?
0.0043

Which IC50 is reported for this molecule? Cc1cc(-c2[nH]c3cc(F)c(C4CCN(CCS(C)(=O)=O)CC4)nc3c2C(C)C)cn2ncnc12 [Example 582]
0.012

Fill in the blank: the reported IC50 of Cc1cc(-c2[nH]c3ccc(C4CCNCC4)nc3c2C(C)C)cn2cnnc12 [Example 518] is ____.
0.032

# lookup: IC50 of Cc1c(-c2[nH]c3ccc(C4CC(N(C)CC(=O)N(C)C)C4)nc3c2C(C)C)cn2ncnc2c1C (stereo not drawn) [Example 622]
0.014

Param item = Cc1c(-c2[nH]c3ccc(C4CCC(NCC(=O)NC(C)(C)C)CC4)nc3c2C(C)C)cn2ncnc2c1C (stereo not drawn) [Example 489] ; retrieve measured IC50.
0.02

Param item = Cc1cc(-c2[nH]c3cc(F)c(C4CCN(C(=O)CN(C)C)CC4)nc3c2C(C)C)cn2ncnc12 [Example 585] ; retrieve measured IC50.
0.0086

----------
- STUDY_SYSTEM: human TLR7 (Homo sapiens (Human))
- TEST: TLR7 inhibition reporter assay (HEK-Blue SEAP)
- Type: cell-based
- RUN_PARAMETERS: HEK-Blue cells overexpressing human TLR7, SEAP reporter, gardiquimod 7.5 μM
Quick list: pIC50 per entry.
Value format note: pIC50 is -log10 of concentration (mol/L); just state the number.

Guide cases for pIC50, answers given:
Which value of pIC50 has been reported for Cc1c(-c2[nH]c3ccc(CCC4CN(CC(=O)N(C)C)C4)nc3c2C(C)C)cn2ncnc2c1C in the records?
7.12

// query pIC50 value for entry COc1cc(-c2[nH]c3ccc(C4CC(N(C)C)C4)nc3c2C(C)C)cn2ncnc12 (centres unmarked) [Example 639]
9.01

Returns the measured pIC50 for the input compound. Input: Cc1c(-c2[nH]c3ccc(C4CCC5(CC4)CNC5)nc3c2C(C)C)cn2ncnc2c1C
9.05

Request the reported pIC50 associated with Cc1c(-c2[nH]c3ccc(N4C[C@H](C)N(CC(N)=O)[C@@H](C)C4)nc3c2C(C)C)cn2ncnc2c1C
8.42

Can you look up the measured pIC50 of CNC(=O)CNC1CC(c2ccc3[nH]c(-c4cc(OC)c5ncnn5c4)c(C(C)C)c3n2)C1 (centres unmarked) for me?
8.68

So what does the record say about pIC50 for Cc1c(-c2[nH]c3ccc(CCC4CNC4)nc3c2C(C)C)cn2ncnc2c1C ?
7.37

So what does the record say about pIC50 for COc1cc(-c2[nH]c3cc(C)c(C4CCNCC4)nc3c2C(C)C)cn2ncnc12 ?
8.92

For the next question, use this compound.
# input compound: CNC(=O)CN1CCC(c2ccc3[nH]c(-c4cc(C)c5ncnn5c4)c(C(C)C)c3n2)CC1 ; wanted: its pIC50
9.24

----------
- STUDY_SYSTEM: human TLR9 (Homo sapiens (Human))
- Sequence (Q9NR96 26-1032): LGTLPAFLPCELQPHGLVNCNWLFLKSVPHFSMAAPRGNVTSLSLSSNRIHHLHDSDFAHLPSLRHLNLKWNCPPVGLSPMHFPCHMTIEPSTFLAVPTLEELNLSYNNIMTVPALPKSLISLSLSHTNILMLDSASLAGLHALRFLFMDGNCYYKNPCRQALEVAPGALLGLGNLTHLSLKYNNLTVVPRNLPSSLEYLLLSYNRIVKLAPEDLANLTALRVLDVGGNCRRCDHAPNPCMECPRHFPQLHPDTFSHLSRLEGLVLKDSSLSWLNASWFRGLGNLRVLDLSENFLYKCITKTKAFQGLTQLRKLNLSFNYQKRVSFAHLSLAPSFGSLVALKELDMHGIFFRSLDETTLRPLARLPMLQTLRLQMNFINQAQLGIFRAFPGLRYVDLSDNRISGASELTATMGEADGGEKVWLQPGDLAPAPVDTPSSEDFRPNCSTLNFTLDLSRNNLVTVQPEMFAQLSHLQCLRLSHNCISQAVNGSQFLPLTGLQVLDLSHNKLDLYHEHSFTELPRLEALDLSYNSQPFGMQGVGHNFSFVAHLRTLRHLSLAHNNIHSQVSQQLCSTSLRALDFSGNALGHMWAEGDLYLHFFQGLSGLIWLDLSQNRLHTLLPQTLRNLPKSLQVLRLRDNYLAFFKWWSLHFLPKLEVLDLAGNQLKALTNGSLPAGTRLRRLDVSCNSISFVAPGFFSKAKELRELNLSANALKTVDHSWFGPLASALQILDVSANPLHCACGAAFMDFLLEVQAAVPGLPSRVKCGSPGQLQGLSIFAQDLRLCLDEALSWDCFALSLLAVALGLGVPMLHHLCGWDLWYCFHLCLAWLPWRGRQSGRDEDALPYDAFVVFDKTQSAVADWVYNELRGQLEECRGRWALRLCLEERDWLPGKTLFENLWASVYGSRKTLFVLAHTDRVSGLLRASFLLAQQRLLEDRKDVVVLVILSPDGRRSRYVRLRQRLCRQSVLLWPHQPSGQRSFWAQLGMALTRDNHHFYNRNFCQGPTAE
- TEST: TLR9 inhibition reporter assay (HEK-Blue SEAP)
- RUN_PARAMETERS: read-out: TLR9 IC50; HEK-Blue human TLR9 cells, ODN2006 5 nM
MEASURE: pIC50
Scale explanation: pIC50 corresponds to minus log10 of a concentration expressed in moles per litre.

GET /values?readout=pIC50&system=human TLR9 (Homo sapiens (Human))&item= Cc1c(-c2[nH]c3ccc(N4C[C@@H](C)N(C(=O)CN(C)C)C[C@H]4C)nc3c2C(C)C)cn2ncnc2c1C [Example 796]
4.95

Turning now to a further molecule:
Quick check: pIC50 on human TLR9 (Homo sapiens (Human)), item Cc1c(-c2[nH]c3ccc(N4C[C@@H](C)N(C(=O)CCN5CCC6(COC6)C5)C[C@@H]4C)nc3c2C(C)C)cn2ncnc2c1C [Example 961] ?
5.08

----------
# pIC50 values compiled below
- STUDY_SYSTEM: human TLR7 (Homo sapiens (Human), UniProt Q9NYK1)
- Sequence (Q9NYK1 27-1049): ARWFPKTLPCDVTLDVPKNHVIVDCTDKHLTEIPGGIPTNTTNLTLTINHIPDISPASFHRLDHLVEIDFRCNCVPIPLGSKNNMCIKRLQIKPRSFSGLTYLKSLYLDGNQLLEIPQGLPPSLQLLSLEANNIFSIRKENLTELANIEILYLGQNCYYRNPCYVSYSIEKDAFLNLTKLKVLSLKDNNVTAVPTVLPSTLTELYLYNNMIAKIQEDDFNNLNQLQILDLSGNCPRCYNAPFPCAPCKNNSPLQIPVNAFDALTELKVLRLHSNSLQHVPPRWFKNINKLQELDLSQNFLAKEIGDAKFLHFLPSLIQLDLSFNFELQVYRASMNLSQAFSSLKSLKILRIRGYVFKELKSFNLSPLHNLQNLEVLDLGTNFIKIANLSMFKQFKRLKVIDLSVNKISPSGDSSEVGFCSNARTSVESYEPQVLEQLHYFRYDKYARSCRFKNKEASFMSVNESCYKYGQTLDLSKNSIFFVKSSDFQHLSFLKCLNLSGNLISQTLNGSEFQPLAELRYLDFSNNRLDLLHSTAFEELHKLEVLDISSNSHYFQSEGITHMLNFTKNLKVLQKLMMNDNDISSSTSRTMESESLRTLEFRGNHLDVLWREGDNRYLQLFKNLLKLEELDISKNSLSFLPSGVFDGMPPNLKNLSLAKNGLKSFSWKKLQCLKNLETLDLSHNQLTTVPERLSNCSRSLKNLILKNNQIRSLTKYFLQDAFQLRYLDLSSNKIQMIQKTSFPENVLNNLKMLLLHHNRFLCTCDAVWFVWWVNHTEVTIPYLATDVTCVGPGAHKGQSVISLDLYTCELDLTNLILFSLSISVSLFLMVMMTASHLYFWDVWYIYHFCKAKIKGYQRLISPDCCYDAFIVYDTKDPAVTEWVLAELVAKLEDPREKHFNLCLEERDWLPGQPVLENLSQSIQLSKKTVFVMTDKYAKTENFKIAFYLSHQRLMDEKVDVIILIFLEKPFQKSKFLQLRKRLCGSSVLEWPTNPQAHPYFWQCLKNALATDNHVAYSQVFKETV
- TEST: TLR7 inhibition reporter assay (HEK-Blue SEAP)
- Assay type: cell-based
- RUN_PARAMETERS: HEK-Blue human TLR7 cells, gardiquimod 7.5 μM
Remember, pIC50 is on a log scale: it is -log10 of the molar concentration.

Here are 3 compounds together with their reported answers.
Need pIC50 of Cc1c(-c2[nH]c3ccc(N4C[C@H](C)N(C(=O)CCN(C)C)C[C@H]4C)nc3c2C(C)C)cn2ncnc2c1C , thanks.
9.42

What measured pIC50 goes with CCN(C)CC(=O)N1C[C@@H](C)N(c2ccc3[nH]c(-c4cn5ncnc5c(C)c4C)c(C(C)C)c3n2)C[C@@H]1C ?
9.28

Returns the measured pIC50 for the input compound. Input: Cc1c(-c2[nH]c3ccc(N4CCN(C(=O)CN5CCOCC5(C)C)CC4)nc3c2C(C)C)cn2ncnc2c1C
8.14

// moving on: another record for pIC50
// pIC50 lookup, key: Cc1c(-c2[nH]c3ccc(N4CCN(C(=O)CN(C)CC5CC5)CC4)nc3c2C(C)C)cn2ncnc2c1C
8.62
